In this section we review reported soluble fraction (log2) values for a set of sequences.
- Procedure Text: soluble fraction after stress (log2 fold change); higher = more stays soluble; pooled small domains, quantitative proteomics
- Settings: stress: 50 degC
No unit in the answer, please; the number alone is enough.

The examples below pair each entry with its known result.
HMDFTISDADFHRLVQFIQQNYGVALSKKRQLISSRLSHSLRELGYKDFRTFLEHLFSTRDPADLELVLNK :: -0.989
HMSSEDTQSRDRARKELSNEMSRIMKRYGLDYQPRDNADDIMNRLKAAGADENTLAYVQEKLK :: 0.134
HMQERQREGFVQQLRGKYSGQVVMRLFPELQGKALGEFMRKFEAQWEDHEAVLAAMEAHEIESRLKVFK :: -0.965

Which soluble fraction (log2) value is on record for HMGPRVSAGPGRHRVQPGDTLDDIAARYRVSSRDLMLVNGLRNANHVEAGQTLKLPSNAVIA ? 0.28

Looking for the measured soluble fraction (log2) of HMKAGAVFNEGDVLYPKIGGLKLMAAAGEGGKVVATLAKTDEMIYMGEEQSGFVKVESGSGSGWVKKILVA , can you help? 0.366

---

- Procedure Text: soluble fraction after stress (log2 fold change); higher = more stays soluble; pooled small domains, quantitative proteomics
- Settings: stress: 50 degC
Experimental Readout: soluble fraction (log2)
Give a plain numeric answer without units written out.

Answered cases to consult:
HMTFAPTAIPSLTRPMEELMSWSFTPNEAFILSRINGLWDVRSIAKISPFPEGEVLRVFEKLHDGGLIRW :: -2.92
HMFHGEGVQANNIQAYIVLKMAAVNGAEDALDTADEVSEKMSREDLETATQVLGQIFRKYLMELQSA :: -1.2
HMAIVNVEVPSLVGKTEQEARNLLTEAGLKVNVVNDEDESKNDGVVLRQSKDAGTEVQEGTTITITVNKVS :: -0.218
HMGEDSEPVQVPDVTGQPLWEARRTLSSMGLKVLDDGGSGSVTAQMPSAGATLRNGGQMMLYTYDEALPE :: 0.133
HMPLRPNQRQFIHLMVYQGLDRNEAYAQANNKVLTEENYESIRTAAAKTFYTPHVNNYYHALMEEIRDRE :: -0.299
HMAEVPSLIGKSLDAAKQAIIDAGFKVGSVSYDNSDSYGKGQVMWQQYEPSTKVKKGSSISIKVSKGS :: 0.00591
HMNLVELKHAEEFNTLIIQDIGGRMKPAHTLASELVRKVFHNDDFNGIDPRKVFLSIIENSKVWFNVPFI :: 0.119

Look up soluble fraction (log2) for this sequence: HMQDQVTLIVQVNGKLRGQISISTDATKELIEQTALANENVQKFVDGQSIKKIIIVPGRLVNIV -1.12

---

- Procedure Text: soluble fraction after stress (log2 fold change); higher = more stays soluble; pooled small domains, quantitative proteomics
- Settings: stress: 50 degC
Each entry falls into one class according to its soluble fraction (log2); the ranges are low band (below -0.2), middle band (-0.2 to below 0.1), high band (0.1 or more)

Previously resolved entries follow.
HMQVSDEGAIQLLVQKAIEENPQAIEAFRGGKTSALGPVVGWVMKQSKGAANPTMVKTLLEKAI :: high band
HMKTLKHYFASIAHEFGREEAELMLLSVFKTPFEQRLMLFMKDPALTEAQVQQLDNLVRQRKQGVPLPYIL :: low band
HMTKAILTANDVRNGDIVFWTADQRWSTSIDDAAIGYGKDDTDQLADAGKQAEAANTVVGAYLIALR :: low band
HMTPDVAEFRERLRQILPGEQIEVRTANDGIVLSGTVSSIARLDAALQLAERYAPSRVSNLMSVG :: high band
HMGWEPTPVLVAARDISGGTVLDQDMLRVEAIPSRLVTPSIVRSDLLASVQDAKLLLPMKQGDLLNFNMLQ :: middle band
HMSLQDYYQVLGVFYNAGDKEIKRRWKELINQYHPDLAQAKGASPEEIENYTLKMAEINNAYEQIMKSRKA :: middle band
HMGNVRSWKGWTSAGGTRVQMRQGDSINSMARRYGVPIQAIVAVNGIDDPAKVQPGQSVIIPTYVY :: middle band
HMSVFGMEIGKTTEAEAGRMYRLNKEQLNPYSGGYQYSVNPKAIDFSGLEQVTLIFDEKKVLVYVQAV :: middle band
HMKFPNVGENLRLLRQEMGISLDKASKMTGVSKAMLGQIERGESSPTVSTLWKISSGFKINFTTLLSE :: low band
HMPVISGQDLRVLIRDTGRERDQGISFLDDGTMVVVEDARRLIGQEVTATVTRVHQTQTGRIVFAHLSN :: middle band

Lab note: sort HMTDFDPDGREKLIKVQKALHFNNHQLADALRVGQATFSSYIYGRVAAGVPVRVVKAAEDLLKNSKATV into the matching soluble fraction (log2) band. low band

Bin? HMGGKAITGGEGEIIIRADKAETVAIYGIDGRLVHRVSTEAGDTKRVSVPAGIYIVKGAKVVV high band

Which class holds HMVDTEVFSRLLRKVLAGDVTSAIRILEELIVGGRELSQFVGDFTWYMRNLLLVKTSDNPEEA ? low band

GET /class?item= HMATPKRGFRKQLAPLVQSGTITREEAGELSRSSGDATALRTKIGELMKAGKLTRKEAGELYSDAFPENA high band

Exercise: read the entry HMYNNGYVNSDRVNFRKGASTNSDIYKVLDKNTSVTILDYEGDWSKVKINDTVGYVYTKYITAG and state which class it falls under. high band

Which band does HMMESLGIRLKRLRKDKGLTQVELGKLSGVTGVTIGYWEKDLNEPGSKALSKLAQALGTTESYLLYGVS fall in? low band

Lab log: HMRPQYVDLFTKLSAEEAGAITSKLKELKVEYQLADNGSTIKVPQKDAAEIRLELANEGLPA — assign soluble fraction (log2) category high band

The measurements presented in this section are drawn from the domain aggregation screens of Martell et al. (2025).
